The compounds below have reported pKi for Protein kinase C theta type (Homo sapiens, UniProt Q04759).
As a rule, pKi stands for the negative log10 of the concentration, concentration in M.

Entry Smiles: CC(C)[C@H]1C(=O)N[C@H](CO)Cc2cn3nc(C(F)(F)F)c4ccc(c2c43)N1C
Assay Endpoint: pKi
Assay Value: 7.29
--
Entry Smiles: Cc1nn2cc3c4c(ccc1c42)N(C)[C@@H](C(C)C)C(=O)N[C@H](CO)C3
Assay Endpoint: pKi
Assay Value: 6.83

What pKi value was documented for this compound, "CC(C)[C@H]1C(=O)N[C@H](CO)Cc2cn3ncc4ccc(c2c43)N1C" ? 7.73
